biological target: human IgE; monoclonal antibody SE44 (human) (UniProt P01854); assay: BIAcore, antibody captured by anti-human IgG, IgE SE44 as analyte
endpoint.name: Ka (M⁻¹)
Give your result in M⁻¹ as a bare value.

Please review the following examples before continuing.
| binder | experimental.result |
| --- | --- |
| reshaped human C21 antibody C21-Hay3/L3 (antibody, V domains shown) VH: QVQLVQSGAEVKKPGASVKVSCKASGYTFSMYWLEWVRQAPGQRLEWMGEISPGTFTTNYNEKFKARATFTADTSASTAYMELSSLRSEDTAVYYCARFSHFSGSNYDYFDYWGQGTLVTVSS VL: EIVLTQSPGTLSLSPGERATLSCRASQSIGTNIHWYQQKPGQAPRLLIKYASESISGIPSRFSGSGSGTDFTLTISRLEPEDFAMYYCQQSDSWPTTFGQGTKVEIK | 1.6e+09 |
| reshaped human C21 antibody C21-H3/L3 (antibody, V domains shown) VH: QVQLVQSGAEVKKPGASVKVSCKASGYTFSMYWLEWVRQAPGHGLEWVGEISPGTFTTNYNEKFKARATFTADTSTNTAYMELSSLRSEDTAVYYCARFSHFSG VL: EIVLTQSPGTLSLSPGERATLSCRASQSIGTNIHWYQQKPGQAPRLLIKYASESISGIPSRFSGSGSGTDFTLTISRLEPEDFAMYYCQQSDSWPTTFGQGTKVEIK | 7.4e+09 |
| reshaped human C21 antibody C21-H3/L2 (antibody, V domains shown) VH: QVQLVQSGAEVKKPGASVKVSCKASGYTFSMYWLEWVRQAPGHGLEWVGEISPGTFTTNYNEKFKARATFTADTSTNTAYMELSSLRSEDTAVYYCARFSHFSG VL: DILLTQSPGTLSLSPGERATLSCRASQSIGTNIHWYQQKPGQAPRLLIKYASESISGIPDRFSGSGSGTDFTLTISRLEPEDFAMYYCQQSDSWPTTFGQGTKVEIK | 5.7e+09 |

Now for the binder whose Ka we want.
**Q:** Any idea what Ka was measured for reshaped human C21 antibody C21-H1/L2 (antibody, V domains shown) VH: QVQLVQSGAEVKKPGASVKVSCKASGYTFSMYWLEWVKQRPGHGLEWVGEISPGTFTTNYNEKFKAKATFTADTSTNTAYMELSSLTSEDTAVYYCARFSHFSG VL: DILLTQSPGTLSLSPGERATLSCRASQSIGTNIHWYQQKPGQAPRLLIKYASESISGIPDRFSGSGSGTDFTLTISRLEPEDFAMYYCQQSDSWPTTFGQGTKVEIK ?
**A:** 4.9e+09
